Reference for the values: patent US20220119354A1

Test system: wheat (Triticum aestivum)
Assay: Test A postemergence, wheat
Assay type: in vivo
Conditions: 500 g ai/ha, 0 to 100 scale
QUANTITY: Plant response rating, Wheat
Provide a numeric answer; units are not to be included.

Req: Reported Plant response rating, Wheat, compound C[C@@H](Nc1ncc(C(F)(F)F)c(N)n1)c1cc2cc(Cl)ccc2o1 : ____
Resp: 0

Req: Which Plant response rating, Wheat value is on record for C[C@@H](Nc1ncc(C(F)(F)F)c(N)n1)c1cc2ccc(C(F)(F)F)cc2o1 ?
Resp: 0

Req: What value of measured Plant response rating, Wheat is listed for Cc1cc2oc([C@@H](C)Nc3ncc(C(F)(F)F)c(N)n3)cc2cc1F ?
Resp: 0

Req: Any idea what Plant response rating, Wheat was measured for Cc1cc2cc([C@@H](C)Nc3ncc(C(F)(F)F)c(N)n3)oc2cc1C ?
Resp: 0

Req: # lookup: Plant response rating, Wheat of C[C@@H](Nc1ncc(C(F)(F)F)c(N)n1)c1cc2cc(F)ccc2o1
Resp: 0

###

Test system: foxtail, giant (Setaria faberii)
Assay: Test A preemergence, giant foxtail
Assay type: in vivo
Settings: 31 g ai/ha, 0 to 100 scale, 0 is no effect, 100 is complete control
QUANTITY: Foxtail, Giant plant response rating
Output: the number by itself.

Req: Look up Foxtail, Giant plant response rating: C[C@@H](Nc1nc(N)c(C(F)(F)F)c(C(F)F)n1)c1cc2ccccc2s1 [Compound 109]
Resp: 0

Req: Reported Foxtail, Giant plant response rating for Cc1cccc2sc([C@@H](C)Nc3ncc(C(F)(F)F)c(N)n3)cc12 [Compound 115] : what is it?
Resp: 30

Req: If you can, please state the reported Foxtail, Giant plant response rating value of C[C@@H](Nc1nc(N)c(C(F)(F)F)c(C(F)F)n1)c1cc2ccccc2o1 [Compound 111] .
Resp: 0

Req: I have this compound here, C[C@@H](Nc1ncc(C(F)(F)F)c(N)n1)c1cc2c(Cl)cccc2s1 [Compound 116] , and I need its recorded Foxtail, Giant plant response rating.
Resp: 20

Req: What value of Foxtail, Giant plant response rating has been recorded for this entry: C[C@@H](Nc1ncc([S+](C)[O-])c(N)n1)c1cc2ccccc2s1 (stereo partly drawn) [Compound 110]
Resp: 0

Req: Find the recorded Foxtail, Giant plant response rating belonging to C[C@@H](Nc1ncc(C(F)(F)F)c(N)n1)c1cc2c(F)ccc(F)c2s1 [Compound 114] and report it.
Resp: 10

Req: Can you look up the measured Foxtail, Giant plant response rating of CC(F)c1nc(N[C@H](C)c2cc3ccccc3s2)nc(N)c1C(F)(F)F (stereo partly drawn) [Compound 108] for me?
Resp: 30

Req: Please report the recorded Foxtail, Giant plant response rating for CC(F)c1nc(N[C@H](C)c2cc3ccccc3o2)nc(N)c1C(F)(F)F (stereo partly drawn) [Compound 112] .
Resp: 0

Req: // Foxtail, Giant plant response rating lookup, key: C[C@@H](Nc1ncc(C(F)(F)F)c(N)n1)c1cc2ccccc2[s+]1[O-] (stereo partly drawn) [Compound 113]
Resp: 0

###

System: barnyardgrass (Echinochloa crus-galli)
Experiment: Test B flooded paddy test, barnyardgrass
Format: in vivo
Settings: Echinochloa crus-galli, 360 h; Flood, 250 g ai/ha, applied to paddy water, 2-leaf stage, visual evaluation after 13 to 15 d; read-out: Plant response rating, Barnyardgrass (0 to 100 scale, 0 is no effect, 100 is complete control)
Description: Plant species in the flooded paddy test selected from rice (Oryza sativa), sedge, umbrella (small-flower umbrella sedge, Cyperus difformis), ducksalad (Heteranthera limosa), and barnyardgrass (Echinochloa crus-galli) were grown to the 2-leaf stage for testing. […] Treated plants and controls were maintained in a greenhouse for 13 to 15 d, after which time all species were compared to controls and visually evaluated. […]
Threshold 40%: pest or weed control at 250 g/ha strictly smaller gives rule met, otherwise rule not met.

Req: Record C[C@@H](Nc1ncc(C(F)(F)F)c(N)n1)c1cc2c(F)cccc2o1 : is its pest or weed control at 250 g/ha strictly below 40%?
Resp: rule not met

Req: Does C[C@@H](Nc1ncc(C(F)(F)F)c(N)n1)c1coc2ccccc12 have pest or weed control at 250 g/ha strictly under 40%?
Resp: rule not met

Req: In the record for C[C@@H](Nc1ncc(C(F)(F)F)c(N)n1)c1cc2ccc(F)cc2o1 , is pest or weed control at 250 g/ha less than 40%?
Resp: rule met

Req: Just wondering, is pest or weed control at 250 g/ha of Cc1cc(C)cc(OC[C@@H](C)Nc2ncc(C(F)(F)F)c(N)n2)c1 below 40%?
Resp: rule met

Req: API: query returns whether the compound falls strictly under 40% in pest or weed control at 250 g/ha. Query: C[C@@H](Nc1ncc(C(F)(F)F)c(N)n1)c1cc2cccc(F)c2o1
Resp: rule met

Req: Just wondering, is pest or weed control at 250 g/ha of C[C@@H](Nc1ncc(C(F)(F)F)c(N)n1)c1cc2ccccc2s1 below 40%?
Resp: rule not met

Req: Is pest or weed control at 250 g/ha strictly under 40% for the entry C[C@@H](Nc1ncc(C(F)(F)F)c(N)n1)C1Cc2ccccc2C1 ?
Resp: rule not met

###

Exercise: state measured Plant response rating, Kochia for each of the molecules provided.
Test system: kochia (Kochia scoparia)
Test: Test A postemergence, kochia
Assay type: in vivo
Conditions: 500 g ai/ha, 0 to 100 scale
Lab note: write the figure by itself, no unit.

Req: I am curious: what Plant response rating, Kochia value has been reported for Cc1cc(OCC(C)Nc2ncc(C(F)(F)F)c(N)n2)ccc1F (centres unmarked) [Compound 38] ?
Resp: 30

Req: Entry under review: Cc1cc(F)cc(OCC(C)Nc2ncc(C(F)(F)F)c(N)n2)c1 (centres unmarked) [Compound 39] . Reported Plant response rating, Kochia?
Resp: 70

Req: Using the record for C[C@H](Nc1ncc(C(F)(F)F)c(N)n1)c1cc2ccccc2s1 [Compound 5] , report its Plant response rating, Kochia.
Resp: 20

Req: Entry CC(Nc1ncc(C(F)(F)F)c(N)n1)c1cc2ccccc2s1 (racemic) [Compound 16] : reported Plant response rating, Kochia = ?
Resp: 80

Req: Requested read-out: Plant response rating, Kochia. Entry: CC(COc1cccc(F)c1)Nc1ncc(C(F)(F)F)c(N)n1 (centres unmarked) [Compound 37]
Resp: 0

Req: Any idea what its Plant response rating, Kochia is? The molecule is Cc1ccc2cc([C@@H](C)Nc3ncc(C(F)(F)F)c(N)n3)oc2c1 [Compound 14]
Resp: 90

Req: I am curious: what Plant response rating, Kochia value has been reported for CC(Nc1ncc(C(F)(F)F)c(N)n1)c1csc2ccccc12 (centres unmarked) [Compound 40] ?
Resp: 90

Req: What measured Plant response rating, Kochia goes with C[C@@H](Nc1ncc(C(F)(F)F)c(N)n1)c1cc2ccc(Cl)cc2o1 [Compound 29] ?
Resp: 90

Req: Fill blank: measured Plant response rating, Kochia of the molecule CC(COc1cc(Cl)cc(Cl)c1)Nc1ncc(C(F)(F)F)c(N)n1 (centres unmarked) [Compound 35] is ____.
Resp: 20

Req: Endpoint output: Plant response rating, Kochia of Nc1nc(NC(c2cc3ccccc3o2)C2CC2)ncc1C(F)(F)F (racemic) [Compound 18] . Value?
Resp: 90

Req: Sample CCc1ccc2oc([C@@H](C)Nc3ncc(C(F)(F)F)c(N)n3)cc2c1 [Compound 17] — what was its Plant response rating, Kochia?
Resp: 0

Req: Quick one: Plant response rating, Kochia of CCC(Nc1ncc(C(F)(F)F)c(N)n1)c1cc2ccccc2o1 (racemic) [Compound 28] ?
Resp: 80

Req: Dear colleague, I am looking for the recorded Plant response rating, Kochia of the following molecule: CC(Nc1ncc(C#N)c(N)n1)c1cc2ccccc2o1 (racemic) [Compound 19]
Resp: 30

Req: Which Plant response rating, Kochia is reported for this molecule? CC(COc1cc(F)c(F)c(F)c1)Nc1ncc(C(F)(F)F)c(N)n1 (centres unmarked) [Compound 36]
Resp: 0

Req: Value lookup for Plant response rating, Kochia; key = C[C@@H](Nc1ncc(C(F)(F)F)c(N)n1)c1cc2ccc(C(F)(F)F)cc2o1 [Compound 15]
Resp: 80

Req: Can you share its Plant response rating, Kochia? I mean this molecule: CC(COc1cccc(C(F)(F)F)c1)Nc1ncc(C(F)(F)F)c(N)n1 (centres unmarked) [Compound 34]
Resp: 70

Req: Entry C[C@@H](Nc1ncc(C(F)(F)F)c(N)n1)c1cccc2ccccc12 [Compound 3] has what Plant response rating, Kochia?
Resp: 90

Req: I would be grateful if you could share the reported Plant response rating, Kochia for C[C@@H](Nc1ncc(C(F)(F)F)c(N)n1)c1cc2cc(C(F)(F)F)ccc2o1 [Compound 7] .
Resp: 0

Req: // returns reported Plant response rating, Kochia for input C[C@@H](Nc1ncc(C(F)(F)F)c(N)n1)c1cc2cc(F)ccc2o1 [Compound 9]
Resp: 90

Req: Please look up its Plant response rating, Kochia: Cc1ccc2oc([C@@H](C)Nc3ncc(C(F)(F)F)c(N)n3)cc2c1 [Compound 10]
Resp: 0

Req: Which Plant response rating, Kochia reading was recorded for the molecule C[C@@H](Nc1ncc(C(F)(F)F)c(N)n1)c1cc2cc(F)c(F)cc2o1 [Compounds 30] ?
Resp: 80

Req: Which Plant response rating, Kochia reading was recorded for the molecule C[C@@H](Nc1ncc(C(F)(F)F)c(N)n1)c1ccc2ccccc2c1 [Compound 1] ?
Resp: 50

Req: Value lookup for Plant response rating, Kochia; key = CC(CCc1ccccc1)Nc1ncc(C(F)(F)F)c(N)n1 (centres unmarked) [Compound 23]
Resp: 0

Req: I would be grateful if you could share the reported Plant response rating, Kochia for CC(Nc1ncc(C(F)(F)F)c(N)n1)C1Cc2ccccc2C1 (racemic) [Compound 6] .
Resp: 90

Req: Could you share which Plant response rating, Kochia value was measured for CC(COc1cc(F)cc(F)c1)Nc1ncc(C(F)(F)F)c(N)n1 (centres unmarked) [Compound 33] ?
Resp: 30

Req: Tell me the measured Plant response rating, Kochia of Cc1cc2oc([C@@H](C)Nc3ncc(C(F)(F)F)c(N)n3)cc2cc1F [Compound 31] , please.
Resp: 90

Req: Need Plant response rating, Kochia of C[C@@H](Nc1ncc(C(F)(F)F)c(N)n1)c1cc2cc(Cl)ccc2o1 [Compound 2] , thanks.
Resp: 0

Req: // returns reported Plant response rating, Kochia for input C[C@H](Nc1ncc(C(F)(F)F)c(N)n1)C1Cc2ccccc2C1 [Compound 12]
Resp: 30

Req: I have this molecule here, CCC(Nc1ncc(C#N)c(N)n1)c1cc2ccccc2o1 (racemic) [Compound 20] , and I need its recorded Plant response rating, Kochia.
Resp: 90

Req: Requested field: Plant response rating, Kochia. Item: CC[C@H](COc1cc(C)cc(C)c1)Nc1ncc(C(F)(F)F)c(N)n1 [Compound 27]
Resp: 70

Req: I would be grateful if you could share the reported Plant response rating, Kochia for Cc1cc2cc([C@@H](C)Nc3ncc(C(F)(F)F)c(N)n3)oc2cc1C [Compound 11] .
Resp: 70

Req: Looking for the measured Plant response rating, Kochia of Cc1cccc(OCC(C)Nc2ncc(C(F)(F)F)c(N)n2)c1 (centres unmarked) [Compound 32] , can you help?
Resp: 60
